Give hCD71:HSA for every item shown.
# target entity: T1, recombinant biotinylated CD71 extracellular domain (Sino Biologics) with an N-terminal 6His tag (human, UniProt P02786 89-760, biotinylated (sites not given))
# T1 construct: extracellular domain; also called hCD71; huCD71
# T1 sequence (P02786 other isoform, or with tags, fused parts or gaps): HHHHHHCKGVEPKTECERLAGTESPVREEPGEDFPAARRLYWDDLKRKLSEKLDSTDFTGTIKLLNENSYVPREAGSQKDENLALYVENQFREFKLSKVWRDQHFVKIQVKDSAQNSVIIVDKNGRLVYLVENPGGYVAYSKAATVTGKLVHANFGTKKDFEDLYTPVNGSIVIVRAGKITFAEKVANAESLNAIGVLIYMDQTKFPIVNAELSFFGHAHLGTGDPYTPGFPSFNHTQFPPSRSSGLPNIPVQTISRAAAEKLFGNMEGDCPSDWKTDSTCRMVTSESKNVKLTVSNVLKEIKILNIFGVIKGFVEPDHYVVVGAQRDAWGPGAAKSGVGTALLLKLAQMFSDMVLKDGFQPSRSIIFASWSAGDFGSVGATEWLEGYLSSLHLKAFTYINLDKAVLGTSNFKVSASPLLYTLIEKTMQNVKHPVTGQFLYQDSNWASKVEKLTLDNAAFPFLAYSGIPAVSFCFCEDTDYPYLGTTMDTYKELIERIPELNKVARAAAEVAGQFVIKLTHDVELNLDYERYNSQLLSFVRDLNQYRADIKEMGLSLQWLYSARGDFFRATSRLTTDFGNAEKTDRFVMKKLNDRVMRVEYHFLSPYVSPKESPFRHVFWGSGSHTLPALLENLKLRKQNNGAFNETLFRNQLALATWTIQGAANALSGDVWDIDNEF
# assay comment: screening ELISA, ratio
Answer with a bare number; do not write a unit.

The reported hCD71:HSA of the binder SEQ ID NO 279 (designed binder, FN3 domain) MLPAPKNLVVSRVTEDSARLSWTAPDAAFDSFSIEYYESVGLGEAIVLTVPGSERSYDLTGLKPGTEYDVSIYGVKGGYLSRPLSAIFTT was 1300

The reported hCD71:HSA of the binder SEQ ID NO 229 (designed binder, FN3 domain) MLPAPKNLVVSRVTEDSARLSWTAPDAAFDSFSIHYDEDWRRGEAIVLTVPGSERSYDLTGLKPGTEYLVEIPGVKGGKASYPLSAIFTT was 154

The reported hCD71:HSA of the binder SEQ ID NO 270 (designed binder, FN3 domain) MLPAPKNLVVSRVTEDSARLSWTAPDAAFDSFLIRYQEWQRWGEAIVLTVPGSERSYDLTGLKPGTEYTVHIAGVKGGMLSLPLSAIFTT was 754

The reported hCD71:HSA of the binder SEQ ID NO 252 (designed binder, FN3 domain) MLPAPKNLVVSRVTEDSARLSWTAPDAAFDSFDIGYTEYGGYGEAIVLTVPGSERSYDLTGLKPGTEYWVLIQGVKGGGSSVPLSAIFTT was 1190

The reported hCD71:HSA of the binder SEQ ID NO 101 (designed binder, FN3 domain) MLPAPKNLVVSRVTEDSARLSWTAPDAAFDSFAIDYDEPINSGEAIVLTVPGSERSYDLTGPKPGTEYEVEIYGVKGGYLSRPLSAIFTT was 216

The reported hCD71:HSA of the binder SEQ ID NO 306 (designed binder, FN3 domain) MLPAPKNLVVSRVTEDSARLSWTAPDAAFDSFYIEYFETQGYGEAIVLTVPGSERSYDLTGLKPGTEYYVAIYGVKGGYLSRPLSAIFTT was 1810

The reported hCD71:HSA of the binder SEQ ID NO 139 (designed binder, FN3 domain) MLPAPKNLVVSRVTEDSARLSWTAPDAAFDSFDISYWESGKYGEAIVLTVPGSESSYDLTGLKPGTEYLVDIFGVKGGYPSEPLSAIFTT was 1440

The reported hCD71:HSA of the binder SEQ ID NO 123 (designed binder, FN3 domain) MLPAPKNLVVSRVTEDSARLSWTAPDAAFDSFVIPYEEYLYTGEAIVLTVPGSERSYDLTGLKPGTEYDVWIEGVKGGLTSWPLSAIFTT was 228

The reported hCD71:HSA of the binder SEQ ID NO 124 (designed binder, FN3 domain) MLPAPKNLVVSRVTEDSARLSWTAPDAAFDSFSIDYPEFPVRGEAIVLTVPGSERSYDLTGLKPGTEYAVTIWGVKGGFTSQPLSAIFTT was 175

The reported hCD71:HSA of the binder SEQ ID NO 167 (designed binder, FN3 domain) MLPAPKNLVVSRVTEDSARLSWTAPDAAFDSFFIGYLEPQPPGEAIVLTVPGSERSYDLTGLKPGTEYNVTIQGVKGGTPSEPLSAIFTT was 727

The reported hCD71:HSA of the binder SEQ ID NO 157 (designed binder, FN3 domain) MLPAPKNLVVSRVTEDSARLSWTAPDAAFDSFAIEYYEYVGNGEAIVLTVPGSERSYDLTGLKPGTEYQVGIYGVKGGYYSRPLSAIFTT was 1080

The reported hCD71:HSA of the binder SEQ ID NO 261 (designed binder, FN3 domain) MLPAPKNLVVSRVTEDSARLSWTAPDAAFDSFTIVYGEWGVPGEAIVLTVPGSERSYDLTGLKPGTEYDVWIEGVKGGDLSWPLSAIVTT was 763

The reported hCD71:HSA of the binder SEQ ID NO 136 (designed binder, FN3 domain) MLPAPKNLVVSRVTEDSARLSWTAPDAAFDSFFIYYIESYPAGEAIVLTVPGSERSYDLTGLKPGTEYWMGIDGVKGGRWSTPLSAIFTT was 706

The reported hCD71:HSA of the binder SEQ ID NO 178 (designed binder, FN3 domain) MLPAPKNLVVSRVTEDSARLSWTAPDAAFDSFDIAYAEPIPRGEAIVLTVPGSERSYDLTGLKPGTEYSVLIHGVKGGRRSVPLSAIFTT was 644

The reported hCD71:HSA of the binder SEQ ID NO 300 (designed binder, FN3 domain) MLPAPKNLVVSRVTEDSARLSWTAPDAAFDSFFIGYLEPQPPGEAIVLTVPGSERSYDLTGLKPGTEYNVTIHGVKGGTPSMPLSAIFTT was 571

The reported hCD71:HSA of the binder SEQ ID NO 237 (designed binder, FN3 domain) MLPAPKNLVVSRVTEDSARLSWTAPDAAFDSFTILYGEMGTTGEAIVLTVPGSERSYDLTGLKPGTEYDVFIEGVKGGELSWPLSAIFTT was 2240

The reported hCD71:HSA of the binder SEQ ID NO 207 (designed binder, FN3 domain) MLPAPKNLVVSRVTEDSARLSWTAPDAAFDSFFIGYLEPQPPGEAIVLTVPGSERSYDLTGLKPGTEYNVTIQGVKGGTPSEPLSAISTT was 62

The reported hCD71:HSA of the binder SEQ ID NO 190 (designed binder, FN3 domain) MLPAPKNLVVSRVTEDSARLSWTAPDAAFDSFFIGYPEYPATGEAITLFVPGSERSYDLTGLKPGTEYNVVIQGVKGGRPSNPLVVAFTT was 656
